# GI50 per entry
# Tested on: MDA-MB-231
# Assay method text: NCI tumour cell line growth inhibition, 48 h
The source made the active and inactive calls. No stated cut-off is given here; in the data, active = GI50 up to about 1.1 µM and inactive = higher.

C/N=c1\sc2nc(C#N)c(C#N)nc2n1C :: 40.1 µM (inactive)
Cc1ccc(N(C(=O)Nc2ccccc2)C2=NCC(C)S2)cc1C (stereo unspecified) :: 18.7 µM (inactive)
CCC(C#N)(c1ccccc1)N(CCc1ccccc1)C(=O)c1ccccc1 (stereo unspecified) :: 13.5 µM (inactive)
Oc1cccc(-c2cc(=S)ss2)c1 :: 14.3 µM (inactive)
COc1cc2c(c3c1c(=O)c1ccccc1n3C)C=CC1(CCCCC1)O2 :: 4.83 µM (inactive)

Continue with the next compound.
Incoming: Item under review: `NC(=O)Cc1ncn(-c2ccccc2)n1` . Reported GI50?
Outgoing: > 100 µM (inactive)

----------
# Tested on: A549
# Assay method text: NCI tumour cell line growth inhibition, 48 h
Activity calls are given as the source filed them. No stated cut-off is given here; in the data, active = GI50 up to about 1.1 µM and inactive = higher.
Write down one outcome, taken from True (active), False (inactive)

The examples below pair each entry with its known result.
O=c1sc(-c2nc3ccccc3[nH]2)c(/N=C/c2ccccc2)n1-c1ccccc1 :: False
COc1cc(C2c3cccc4cccc(c34)C3CCC(=O)N32)cc(O)c1O (stereo unspecified) :: False

Kindly review the next compound as well.
Incoming: Can you look up the reported call for O=C1C=C(c2ccccc2)OC1C1Sc2ccccc2NC1=O (stereo unspecified) for me?
Outgoing: False

----------
# Test system: MOLT-4
# Assay method text: NCI tumour cell line growth inhibition, 48 h
Calls of active or inactive are those of the source. No stated cut-off is given here; in the data, active = GI50 up to about 1.1 µM and inactive = higher.
Endpoint: GI50

Record excerpt, results attached:
NC(=O)c1nnsc1NC=O :: > 100 µM (inactive)
O=c1oc(C(C(F)(F)F)C(F)(F)F)nc2ccccc12 :: > 100 µM (inactive)
CS(=O)(=O)OCCN(CCOS(C)(=O)=O)c1ccc(C=O)cc1 :: 0.233 µM (active)

Incoming: Item under review: COc1cccc(C(=O)C2C(=O)N(C)CCc3ccccc32)c1OC (stereo unspecified) . Reported GI50?
Outgoing: > 100 µM (inactive)

Incoming: Then NC(=O)C1=C(O)C[C@@H]2CC3Cc4cccc(O)c4C(=O)C3=C(O)[C@]2(O)C1=O (stereo partly specified) ?
Outgoing: 1.61 µM (inactive)

Incoming: Then `COC(=O)CNC(=O)CSc1nnc(COc2ccc(Cl)cc2)n1-c1ccccc1` ?
Outgoing: 64.1 µM (inactive)

----------
# Test system: SN12C
# Assay method text: NCI tumour cell line growth inhibition, 48 h
Active and inactive are the calls of the source. No stated cut-off is given here; in the data, active = GI50 up to about 1.1 µM and inactive = higher.
Write down one outcome, taken from true (1) for active, false (0) for inactive

The examples below pair each entry with its known result.
C[N+]1(CCC(=O)c2ccco2)CC2CCC(CC2)C1 (stereo unspecified) :: false (0)
CCOC(=O)n1[nH]c(=O)n(-c2ccccc2)c1=O :: false (0)
C/C=C(\C)c1cc(=O)c2c(C)cc3c(c2o1)C(=O)c1c(O)c(C2CC(C)(N(C)C)C(OC(C)=O)C(C)O2)cc(C2CC(N(C)C)C(O)C(C)O2)c1C3=O (stereo unspecified) :: true (1)
Cc1cn([C@H]2C=C[C@@H](CO)O2)c(=O)[nH]c1=O :: false (0)
O=CN(O)CC(=O)O :: false (0)
COC(=O)c1ccc(Oc2nc3ccccc3nc2-c2cccs2)cc1 :: false (0)

Incoming: Can you look up the reported call for `NC(=O)c1nnsc1NC=O` for me?
Outgoing: false (0)

Incoming: Then CCCCc1c2c(nc3c1CCCC3O)/C(=C/c1ccccc1)CCC2 (stereo unspecified) ?
Outgoing: false (0)

Incoming: Then COC(=O)C(N)CCCC(N)C(=O)NC(C)C(=O)NC(CCC(=O)NCCNCCNc1c2ccccc2nc2cccc([N+](=O)[O-])c12)C(N)=O (stereo unspecified) ?
Outgoing: false (0)

Incoming: Then `CCOC(=O)NC(=O)c1cn(CCCCCOC(=O)NCCCCCCNC(=O)OCCCCCn2cc(C(=O)NC(=O)OCC)c(=O)[nH]c2=O)c(=O)[nH]c1=O` ?
Outgoing: false (0)

Incoming: Then CC(=O)c1ccc(N2C(=O)C3c4[nH]c5ccccc5c4C4CCC(C(C)(C)C)CC4C3C2=O)cc1 (stereo unspecified) ?
Outgoing: false (0)

Incoming: Then O=C1OCC2=C1C(c1ccc(Cl)cc1)c1cc3c(cc1O2)OCO3 (stereo unspecified) ?
Outgoing: false (0)

----------
# Tested on: KM12
# Assay method text: NCI tumour cell line growth inhibition, 48 h
Calls of active or inactive are those of the source. No stated cut-off is given here; in the data, active = GI50 up to about 1.1 µM and inactive = higher.
Write down one outcome, taken from Yes for active, No for inactive

COc1ccc(NC(=O)C2C(=O)N(c3ccc(OC)cc3)C(=O)/C2=N\NC(N)=O)cc1 (configuration not stated) :: No

Incoming: Can you look up the reported call for `COc1ccc(-c2csc(=[N+]3CCCCC3)s2)cc1` for me?
Outgoing: No

----------
# System: UACC-62
# Assay method text: NCI tumour cell line growth inhibition, 48 h
The source made the active and inactive calls. Cut-off read from the data, not from the text of the source: active = GI50 up to about 1.1 µM and inactive = higher.
Endpoint: GI50

Record excerpt, results attached:
C=CCN1CCC(OC(=O)C(O)(/C=C\CC)C2CCCC2)CC1 (centres undefined) :: > 100 µM (inactive)
O=C(CN1CCCC1)Nc1ccc2sc3ccccc3c(=O)c2n1 :: 19.9 µM (inactive)
CC(=O)OCC1OC(n2cccnc2=O)C(OC(C)=O)C1OC(C)=O (centres undefined) :: > 100 µM (inactive)
CCCCCCCCCCCCCCCCCCNc1nc(=O)n(C2CC(O)C(COP(=O)(O)OCC(COP(=O)(O)OC3C(CO)OC(n4ccc(N)nc4=O)C3O)OCCCCCCCCCCCCCCCCCC)O2)cc1F (centres undefined) :: > 100 µM (inactive)
O=C1OCC2=C1C(c1ccc(Cl)cc1)c1cc3c(cc1O2)OCO3 (centres undefined) :: 4.36 µM (inactive)

Incoming: Item under review: `COc1cc(/C=C/C(=O)OCCc2ccccc2)ccc1O` . Reported GI50?
Outgoing: 12.7 µM (inactive)

Incoming: Then CC(Oc1ccc(Cl)cc1Cl)C(=O)NN1C(=O)CSC1c1ccccc1 (centres undefined) ?
Outgoing: 50.2 µM (inactive)

Incoming: Then COC(=O)C(=O)C(C(=O)C(=O)Nc1ccccc1OC)c1nc2ccc([N+](=O)[O-])cc2nc1O (centres undefined) ?
Outgoing: > 100 µM (inactive)

Incoming: Then `N#CCCN(CCC#N)c1ccc(/C=C(\NC(=O)c2cc([N+](=O)[O-])ccc2Cl)C(=O)Nc2ccccc2)cc1` ?
Outgoing: 4.52 µM (inactive)

----------
# GI50 per entry
# System: TK-10
# Assay method text: NCI tumour cell line growth inhibition, 48 h
The source made the active and inactive calls. Cut-off read from the data, not from the text of the source: active = GI50 up to about 1.1 µM and inactive = higher.

OC12c3ccccc3C1(N1CCOCC1)CCCCC21OCCCO1 (stereo not given) :: > 100 µM (inactive)
CC(=O)N1CCN(CCCCN2c3ccccc3Sc3cc(N=[N+]=[N-])ccc32)CC1 :: 17.4 µM (inactive)
CCCCC1NC=Nc2c1ccc1c2[nH]c2ccccc21 (stereo not given) :: 5.71 µM (inactive)

Incoming: Which GI50 is reported with TK-10 for this entry: `Oc1cccc(-c2cc(=S)ss2)c1` ?
Outgoing: 18.5 µM (inactive)

Incoming: Then CCCCCCCCCCCCCCCCCCNc1nc(=O)n(C2CC(O)C(COP(=O)(O)OCC(COP(=O)(O)OC3C(CO)OC(n4ccc(N)nc4=O)C3O)OCCCCCCCCCCCCCCCCCC)O2)cc1F (stereo not given) ?
Outgoing: 33.1 µM (inactive)

Incoming: Then `O=c1c(Sc2c(SCSc3cnc4ccccc4c3Sc3c[nH]c4ccccc4c3=O)cnc3ccccc23)c[nH]c2ccccc12` ?
Outgoing: > 100 µM (inactive)

Incoming: Then `N#Cc1c(=O)c2ccccc2n2c1[nH]c1ccccc12` ?
Outgoing: 49.5 µM (inactive)

Incoming: Then NCCN1C(=O)c2ccccc2C1(O)c1ccc(Cl)cc1 (stereo not given) ?
Outgoing: 17.9 µM (inactive)

Incoming: Then `CCCCNC(=O)c1cc2c(cc1Cl)Sc1nccn1S2(=O)=O` ?
Outgoing: > 100 µM (inactive)

Incoming: Then `CN1Nc2ccccc2CC1=O` ?
Outgoing: > 100 µM (inactive)

----------
# GI50 per entry
# Test system: M14
# Assay method text: NCI tumour cell line growth inhibition, 48 h
Calls of active or inactive are those of the source. No stated cut-off is given here; in the data, active = GI50 up to about 1.1 µM and inactive = higher.

Record excerpt, results attached:
CC1=C(/C=C/C(C)=C/C=C/C(C)=C/C=C/C=C(C)/C=C/C=C(C)/C=C/C=C(C)/C=C/C=C(\C)C(=O)O)C(C)(C)CCC1 :: > 100 µM (inactive)
COC(=O)[C@H](Cc1ccccc1)NP(=O)(OCCC#N)OCC1OC(n2cc(C)c(=O)[nH]c2=O)CC1N=[N+]=[N-] (some centres not stated) :: > 100 µM (inactive)
Cc1cc(C)nc(NS(=O)(=O)c2ccc(Nc3c4ccccc4nc4c(C(=O)NC(CO)(CO)CO)cccc34)cc2)n1 :: 37.2 µM (inactive)
CC(=O)C(=N\Nc1ccc(Cl)cc1)/C(C)=N/c1ccc(C)cc1 :: 22.1 µM (inactive)
COc1ccc(C2CC(=O)CC(c3ccc(OC)cc3)C23C(=O)NC(=S)NC3=O)cc1 (configuration not stated) :: > 100 µM (inactive)

Incoming: Item under review: `NN(CC(=O)O)CC(=O)O` . Reported GI50?
Outgoing: > 100 µM (inactive)

Incoming: Then `COc1ccc(CNc2cnc3ccc(N)cc3n2)cc1OC` ?
Outgoing: > 100 µM (inactive)

Incoming: Then `CN1Nc2ccccc2CC1=O` ?
Outgoing: > 100 µM (inactive)

Incoming: Then O=C1OCC2=C1C(c1ccc(Cl)cc1)c1cc3c(cc1O2)OCO3 (configuration not stated) ?
Outgoing: 4.08 µM (inactive)

Incoming: Then Cc1cc(N(CCC#N)CCC#N)ccc1CC1N=C(c2ccccc2)OC1=O (configuration not stated) ?
Outgoing: > 100 µM (inactive)
